FYI, the data here is from PubChem BioAssay AID624268.

Test system: methionyl-tRNA synthetase (Trypanosoma brucei brucei)
Experiment: T. brucei MetRS inhibitors, primary screen, biochemical, luminescence (AID 624268);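 further: 0% = DMSO wells median and 100% = median of wells with control inhibitor compound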
Conditions: purified T. brucei MetRS, ATP depletion, Kinase-Glo luminescence; at 11.9 µM; hits give high values
The whole screen tested about 360,000 compounds, of which about 1,500 (0.42%) were called active. The sample holds actives, similar compounds and a random draw of the others, so the mix is not that of the screen.
Measurement Kind: inhibition (%)

{"columns": ["Molecule", "Test Target", "Measurement Kind", "Measurement"],
 "data": [
  ["Cc1cccc(N2CCN(C(c3ccc(N(C)C)cc3)c3nnnn3C(C)(C)C)CC2)c1C (stereo unspecified)", "methionyl-tRNA synthetase (Trypanosoma brucei brucei)", "inhibition", -1.18],
  ["CN(C(=O)CSc1nnc(-c2ccc3c(c2)OCO3)o1)C1CCS(=O)(=O)C1 (stereo unspecified)", "methionyl-tRNA synthetase (Trypanosoma brucei brucei)", "inhibition", -0.28],
  ["C[C@H]1CN(c2ccc(Br)cc2)C(=O)[C@@H]1CC(=O)Nc1ccc(Br)cc1", "methionyl-tRNA synthetase (Trypanosoma brucei brucei)", "inhibition", -0.7],
  ["CCOC(=O)CC1=CC(=O)Nc2ccccc2N1", "methionyl-tRNA synthetase (Trypanosoma brucei brucei)", "inhibition", -0.37],
  ["CC1(C(=O)NS(=O)(=O)c2cccc(OC(F)F)c2)CCN1C(=O)C1CC1 (stereo unspecified)", "methionyl-tRNA synthetase (Trypanosoma brucei brucei)", "inhibition", -0.2],
  ["CC1(C(=O)NS(=O)(=O)c2cccc(F)c2)CCN1C(=O)c1cccc2ccccc12 (stereo unspecified)", "methionyl-tRNA synthetase (Trypanosoma brucei brucei)", "inhibition", -0.25],
  ["CCn1c(SCC(=O)N(C)C2CCS(=O)(=O)C2)nnc1-c1cccs1 (stereo unspecified)", "methionyl-tRNA synthetase (Trypanosoma brucei brucei)", "inhibition", -0.25],
  ["CCOc1ccccc1C1CC(c2ccc(Cl)cc2)Nc2nc(N)nn21 (stereo unspecified)", "methionyl-tRNA synthetase (Trypanosoma brucei brucei)", "inhibition", 0.5],
  ["CCN(CC)C(=O)Cn1cc(S(=O)(=O)CC(=O)NCc2ccc3c(c2)OCO3)c2ccccc21", "methionyl-tRNA synthetase (Trypanosoma brucei brucei)", "inhibition", -0.63],
  ["C[C@@H]1CN([C@H](C)CO)C(=O)CCCn2cc(nn2)CO[C@H]1CN(C)S(C)(=O)=O", "methionyl-tRNA synthetase (Trypanosoma brucei brucei)", "inhibition", -1.67],
  ["COc1cccc(NC(=O)CN(C)C(=O)c2cc(C3CC3)nn2-c2ccccc2)c1", "methionyl-tRNA synthetase (Trypanosoma brucei brucei)", "inhibition", -0.11],
  ["COC(=O)/C(=C\\Nc1ccccc1)NC(=O)c1ccc(Cl)cc1Cl", "methionyl-tRNA synthetase (Trypanosoma brucei brucei)", "inhibition", 43],
  ["O=S(=O)(c1ccccc1)N1CCC(c2ccccc2)CC1", "methionyl-tRNA synthetase (Trypanosoma brucei brucei)", "inhibition", 0.06],
  ["O=C1CSc2ccc(C(=O)NCc3ccccn3)cc2N1", "methionyl-tRNA synthetase (Trypanosoma brucei brucei)", "inhibition", -0.41],
  ["COc1ccc(CCOC(=O)CNC(=O)c2ccc(Cl)cc2Cl)cc1", "methionyl-tRNA synthetase (Trypanosoma brucei brucei)", "inhibition", 0.12],
  ["CC(C)CNC(=O)C1CCCN(S(=O)(=O)c2ccc(-n3cnnn3)cc2)C1 (stereo unspecified)", "methionyl-tRNA synthetase (Trypanosoma brucei brucei)", "inhibition", -0.29]
]}
